Catalogue of Papp B→A readings, one per entry.
Test Summary: Bi-directional Caco-2 permeability
Format: in vitro ADME
Settings: human, Caco-2; basolateral to apical, 37 C, up to 90 minutes; read-out: BA Papp (cm/sec × 10^6)
Write it as a number; the unit ×10⁻⁶ cm/s goes unstated.

See these solved cases before continuing.
INSERT INTO results (compound, units_symbol, reported_measurement) VALUES
  ('CC(C)OC(=O)Nc1ccc(-c2cnc(C3CCC(NC(=O)OC(C)(C)C)CC3)s2)c(S(=O)(=O)NC(C)(C)C)c1 (centres unmarked)', '×10⁻⁶ cm/s', 4.2),
  ('CC(C)OC(=O)Nc1ccc(-c2cnc(C3CCC(NC(=O)OC4CCCC4)CC3)s2)c(S(=O)(=O)NC(C)(C)C)c1 (centres unmarked)', '×10⁻⁶ cm/s', 2.1),
  ('CC(C)(C)NS(=O)(=O)c1cc(NC(=O)NCc2ccccc2)ccc1-c1cnc(C2CCC(NC(=O)OC3COC3)CC2)s1 (centres unmarked)', '×10⁻⁶ cm/s', 12.4),
  ('CC(C)NC(=O)OC1CCC(c2ncc(-c3ccc(NC(=O)OC(C)C)cc3S(=O)(=O)NC(C)(C)C)s2)CC1 (centres unmarked)', '×10⁻⁶ cm/s', 10.4),
  ('CC(C)(C)NS(=O)(=O)c1cc(NC(=O)NCc2ccccc2)ccc1-c1cnc(C2CCC(NC(=O)OC(C)(C)C)CC2)s1 (centres unmarked)', '×10⁻⁶ cm/s', 1.5),
  ('CC(C)OC(=O)NC1CCC(c2nc(F)c(-c3ccc(NC(=O)NCc4ccccc4)cc3S(=O)(=O)NC(C)(C)C)s2)CC1 (centres unmarked)', '×10⁻⁶ cm/s', 3.5),
  ('CC(C)(C)NS(=O)(=O)c1cc(NC(=O)NCc2ccccn2)ccc1-c1cnc(C2CCC(NC(=O)OC(C)(C)C)CC2)s1 (centres unmarked)', '×10⁻⁶ cm/s', 10.8);

Please look at the following compound next.
[Q] Requested field: Papp B→A. Item: CC(C)OC(=O)NC1CCC(c2ncc(-c3ccc(NC(=O)NCc4ccncc4)cc3S(=O)(=O)NC(C)(C)C)s2)CC1 (centres unmarked)
[A] 21

---

Tested on: CCRF-SB (Leukemia)
Test Summary: Cell line screen (potency assay)
Format: cell-based
Settings: Homo sapiens, AICDA expression High
Measurement Kind: EC50 (µM)
Write it as a number; the unit µM goes unstated.

INSERT INTO assay_data (compound, measurement_kind, reported_measurement) VALUES
  ('CC(C)OC(=O)N[C@H]1CC[C@H](c2ncc(-c3ccc(NC(=O)NCc4ccccn4)cc3S(=O)(=O)NC(C)(C)C)s2)CC1 [Compound 29]', 'EC50', 1.28);

Please look at the following compound next.
[Q] Requested field: EC50. Item: CC(C)OC(=O)N[C@H]1CC[C@H](c2ncc(-c3ccc(NC(=O)NCc4ncccc4F)cc3S(=O)(=O)NC(C)(C)C)s2)CC1 [Compound 31]
[A] 2.16

---

Test system: WI-38 cells (AID negative)
Test Summary: Primary screening cell killing assay repeated in AID negative cells
Assay type: cell-based, Human
Settings: WI-38 (Normal Human Lung Fibroblast), AICDA expression Negative; read-out: EC50
Measurement Kind: EC50

INSERT INTO measurements (item_smiles, reported_measurement) VALUES
  ('CC(C)OC(=O)N[C@H]1CC[C@H](c2ncc(-c3ccc(NC(=O)NCc4ncccc4F)cc3S(=O)(=O)NC(C)(C)C)s2)CC1', '> 10 µM');

Please look at the following compound next.
[Q] Requested field: EC50. Item: `CC(C)OC(=O)N[C@H]1CC[C@H](c2ncc(-c3ccc(NC(=O)NCc4ccccn4)cc3S(=O)(=O)NC(C)(C)C)s2)CC1`
[A] > 10 µM

---

Test Summary: Bi-directional Caco-2 permeability
Type: in vitro ADME
Settings: human; Caco-2 efflux ratio; read-out: BA/AB Ratio
Catalogue of efflux ratio readings, one per entry.
Could you keep your reply to the number by itself?

See these solved cases before continuing.
INSERT INTO measurements (compound, measurement_kind, reported_measurement) VALUES
  ('CC(C)OC(=O)Nc1ccc(-c2cnc(C3CCC(NC(=O)OC(C)(C)C)CC3)s2)c(S(=O)(=O)NC(C)(C)C)c1 (centres unmarked) [Compound 44]', 'efflux ratio', 1.3),
  ('CC(C)(C)NS(=O)(=O)c1cc(NC(=O)NCc2ccccc2)ccc1-c1cnc(C2CCC(NC(=O)OC(C)(C)C)CC2)s1 (centres unmarked) [Compound 10]', 'efflux ratio', 1.3),
  ('CC(C)(C)NS(=O)(=O)c1cc(NC(=O)NCc2ccccn2)ccc1-c1cnc(C2CCC(NC(=O)OC(C)(C)C)CC2)s1 (centres unmarked) [Compound 45]', 'efflux ratio', 1.4),
  ('CC(C)(C)NS(=O)(=O)c1cc(NC(=O)NCc2ccccc2)ccc1-c1cnc(C2CCC(NC(=O)OC3COC3)CC2)s1 (centres unmarked) [Compound 47]', 'efflux ratio', 1.4),
  ('CC(C)NC(=O)OC1CCC(c2ncc(-c3ccc(NC(=O)OC(C)C)cc3S(=O)(=O)NC(C)(C)C)s2)CC1 (centres unmarked) [Compound 20]', 'efflux ratio', 1.1);

[Q] Requested field: efflux ratio. Item: CC(C)OC(=O)NC1CCC(c2nc(F)c(-c3ccc(NC(=O)NCc4ccccc4)cc3S(=O)(=O)NC(C)(C)C)s2)CC1 (centres unmarked) [Compound 57]
[A] 2.7

[Q] Requested field: efflux ratio. Item: CC(C)OC(=O)Nc1ccc(-c2cnc(C3CCC(NC(=O)OC4CCCC4)CC3)s2)c(S(=O)(=O)NC(C)(C)C)c1 (centres unmarked) [Compound 7]
[A] 1.2

[Q] Requested field: efflux ratio. Item: CC(C)OC(=O)NC1CCC(c2ncc(-c3ccc(NC(=O)NCc4ccncc4)cc3S(=O)(=O)NC(C)(C)C)s2)CC1 (centres unmarked) [Compound 22]
[A] 18.7

---

Test Summary: Bi-directional Caco-2 permeability
Format: in vitro ADME
Settings: human, Caco-2, apical to basolateral; read-out: AB Recovery %
Catalogue of recovery at 90 min readings, one per entry.
Write it as a number; the unit % goes unstated.

[Q] Requested field: recovery at 90 min. Item: CC(C)OC(=O)Nc1ccc(-c2cnc(C3CCC(NC(=O)OC4CCCC4)CC3)s2)c(S(=O)(=O)NC(C)(C)C)c1 (stereo not shown)
[A] 55.9

---

Catalogue of Papp A→B readings, one per entry.
Test Summary: Bi-directional Caco-2 permeability
Format: in vitro ADME
Settings: human, Caco-2; apical to basolateral, 37 C, up to 90 minutes; read-out: AB Papp (cm/sec × 10^6)
Write it as a number; the unit ×10⁻⁶ cm/s goes unstated.

See these solved cases before continuing.
INSERT INTO measurements (molecule, measurement_kind, reported_measurement) VALUES
  ('CC(C)NC(=O)OC1CCC(c2ncc(-c3ccc(NC(=O)OC(C)C)cc3S(=O)(=O)NC(C)(C)C)s2)CC1 (centres unmarked) [Compound 20]', 'Papp A→B', 9.4),
  ('CC(C)OC(=O)Nc1ccc(-c2cnc(C3CCC(NC(=O)OC4CCCC4)CC3)s2)c(S(=O)(=O)NC(C)(C)C)c1 (centres unmarked) [Compound 7]', 'Papp A→B', 1.7);

[Q] Requested field: Papp A→B. Item: CC(C)OC(=O)NC1CCC(c2ncc(-c3ccc(NC(=O)NCc4ccncc4)cc3S(=O)(=O)NC(C)(C)C)s2)CC1 (centres unmarked) [Compound 22]
[A] 1.1

[Q] Requested field: Papp A→B. Item: CC(C)(C)NS(=O)(=O)c1cc(NC(=O)NCc2ccccn2)ccc1-c1cnc(C2CCC(NC(=O)OC(C)(C)C)CC2)s1 (centres unmarked) [Compound 45]
[A] 7.6

[Q] Requested field: Papp A→B. Item: CC(C)(C)NS(=O)(=O)c1cc(NC(=O)NCc2ccccc2)ccc1-c1cnc(C2CCC(NC(=O)OC(C)(C)C)CC2)s1 (centres unmarked) [Compound 10]
[A] 1.2

---

Catalogue of recovery at 90 min readings, one per entry.
Test Summary: Bi-directional Caco-2 permeability
Type: in vitro ADME
Settings: human, Caco-2, basolateral to apical; read-out: BA Recovery %
Write it as a number; the unit % goes unstated.

INSERT INTO measurements (compound, measurement_kind, units_symbol, reported_measurement) VALUES
  ('CC(C)OC(=O)Nc1ccc(-c2cnc(C3CCC(NC(=O)OC(C)(C)C)CC3)s2)c(S(=O)(=O)NC(C)(C)C)c1 (stereo not drawn) [Compound 44]', 'recovery at 90 min', '%', 69.4);

[Q] Requested field: recovery at 90 min. Item: CC(C)OC(=O)NC1CCC(c2ncc(-c3ccc(NC(=O)NCc4ccncc4)cc3S(=O)(=O)NC(C)(C)C)s2)CC1 (stereo not drawn) [Compound 22]
[A] 89

[Q] Requested field: recovery at 90 min. Item: CC(C)(C)NS(=O)(=O)c1cc(NC(=O)NCc2ccccc2)ccc1-c1cnc(C2CCC(NC(=O)OC(C)(C)C)CC2)s1 (stereo not drawn) [Compound 10]
[A] 87.2

[Q] Requested field: recovery at 90 min. Item: CC(C)OC(=O)N[C@H]1CC[C@H](c2ncc(-c3ccc(NC(=O)NCc4ccccn4)cc3S(=O)(=O)NC(C)(C)C)s2)CC1 [Compound 29]
[A] 90.9

[Q] Requested field: recovery at 90 min. Item: CC(C)NC(=O)OC1CCC(c2ncc(-c3ccc(NC(=O)OC(C)C)cc3S(=O)(=O)NC(C)(C)C)s2)CC1 (stereo not drawn) [Compound 20]
[A] 96.6

[Q] Requested field: recovery at 90 min. Item: CC(C)OC(=O)NC1CCC(c2ncc(-c3ccc(NC(=O)NCc4cccc(F)c4)cc3S(=O)(=O)NC(C)(C)C)s2)CC1 (stereo not drawn) [Compound 27]
[A] 107
